- Tested on: Escherichia coli
- ASSAY_PROTOCOL: Antibacterial activity against Escherichia coli by transcription and translation assay
- Type: functional
pIC50: −log10 of the molar value.
MEASURED_ENDPOINT: pIC50

Previously resolved entries follow.
{"columns": ["SMILES_ENTRY", "pIC50"],
 "data": [
  ["CC(=O)NC[C@H]1CN(c2ccc(N3CCOCC3)c(F)c2)C(=O)O1", 5.48],
  ["CC(=O)NC[C@H]1CN(c2cc(F)c3c(c2)CCCCC3=O)C(=O)O1", 5.03],
  ["CC(=O)NC[C@H]1CN(c2ccc3c(c2)CCC/C(=C\\c2ccc(OCCN(C)C)cc2)C3=O)C(=O)O1", 5.82]
]}

(a) CC(=O)NC[C@H]1CN(c2ccc3c(c2)CCCC=C3)C(=O)O1
(b) CC(=O)NC[C@H]1CN(c2ccc3c(c2F)CCCCC3=O)C(=O)O1
(c) CC(=O)NC[C@H]1CN(c2ccc3c(c2)CCC3=O)C(=O)O1
In: Output the entries ranked by pIC50 from maximum down to minimum. Ranked list of labels, please, in the requested order.
Out: a, b, c
(a: 5.89, b: 5.05, c: 4.68)

---

- System: Escherichia coli
- ASSAY_PROTOCOL: Antibacterial activity against Escherichia coli by transcription and translation assay
- Assay type: functional
MEASURED_ENDPOINT: IC50 (nM)

Previously resolved entries follow.
{"columns": ["SMILES_ENTRY", "IC50 [nM]"],
 "data": [
  ["CC(=O)NC[C@H]1CN(c2cc(F)c3c(c2)CCCC=C3)C(=O)O1", 9300],
  ["CC(=O)NC[C@H]1CN(c2ccc3c(c2)CCC/C(=C\\c2ccc(S(C)(=O)=O)cc2)C3=O)C(=O)O1", 2800],
  ["CC(=O)NC[C@H]1CN(c2ccc3c(c2)CCC/C(=C\\c2ccc(CCO)cc2)C3=O)C(=O)O1", 2600],
  ["CC(=O)NC[C@H]1CN(c2ccc3c(c2)CCCCCC3=O)C(=O)O1", 5900],
  ["CC(=O)NC[C@H]1CN(c2ccc3c(c2)CCC/C(=C\\c2ccsc2)C3=O)C(=O)O1", 1100],
  ["CC(=O)NC[C@H]1CN(c2ccc3c(c2)C(=O)CCC3)C(=O)O1", 4000],
  ["CC(=O)NC[C@H]1CN(c2ccc3c(c2)CCCCC3=O)C(=O)O1", 3900],
  ["CC(=O)NC[C@H]1CN(c2ccc3c(c2)CCC/C(=C\\c2ccc(O)cc2)C3=O)C(=O)O1", 950],
  ["CC(=O)NC[C@H]1CN(c2ccc3c(c2)CCC/C(=C\\c2ccncc2)C3=O)C(=O)O1", 1700]
]}

(A) CC(=O)NC[C@H]1CN(c2ccc3c(c2)CCC/C(=C\c2cccc(C#N)c2)C3=O)C(=O)O1
(B) CC(=O)NC[C@H]1CN(c2ccc3c(c2)CCC/C(=C\c2ccc(F)cc2)C3=O)C(=O)O1
(C) CC(=O)NC[C@H]1CN(c2cc(F)c3c(c2F)CCCCC3=O)C(=O)O1
In: Sort low-to-high on IC50, please. Ranked list of labels, please, in the requested order.
Out: A, B, C
(A: 1700 nM, B: 2700 nM, C: 14000 nM)
